Cited source for all entries: ChEMBL document CHEMBL1153365

pIC50, cGMP-specific 3',5'-cyclic phosphodiesterase (Homo sapiens, UniProt O76074): measured values
Please note pIC50 is a logarithmic value: minus log10 of concentration in mol/L. Answer with that number alone.

CCOC(=O)c1sc(Nc2nc(N(C)Cc3cc(OC)c(OC)c(OC)c3)cc(N3CCN(C)CC3)n2)nc1C; 5.28
CCOC(=O)c1sc(Nc2nc(NCc3ccc(OC)c(OC)c3)cc(N3CCNCC3)n2)nc1C; 6.49
CCOC(=O)c1sc(Nc2nc(NC)cc(NCc3ccc(S(N)(=O)=O)cc3)n2)nc1C; 7.19
CCOC(=O)c1sc(Nc2nc(N3CCC(O)CC3)cc(N3CCC(O)CC3)n2)nc1C; 6.15

Please examine the following record next.
GET /values?item= CCOC(=O)c1sc(Nc2nc(NCc3ccc(S(N)(=O)=O)cc3)cc(N3CCNCC3)n2)nc1C &system= cGMP-specific 3',5'-cyclic phosphodiesterase (Homo sapiens, UniProt O76074) returns pIC50: 7.14
